From: paper PMC10741027

- Tested on: HepG2 cells
- experimental_details: Acute extracellular flux (AEF) assay in intact HepG2 cells (Seahorse XFe96)
- Format: cell-based, human
- cond: Homo sapiens, HepG2, read-out: AC50 Reserve Capacity
// AC50 lookup, one value per entry
readout_name: AC50

O=C1Nc2ccc(Cl)cc2C(c2ccccc2Cl)=NC1O (stereo not shown)	> 100 µM
CN1c2ccccc2C(NCCCCCCC(=O)O)c2ccc(Cl)cc2S1(=O)=O (stereo not shown)	21.6 µM
C=C(C)[C@H]1Cc2c(ccc3c2O[C@@H]2COc4cc(OC)c(OC)cc4[C@@H]2C3=O)O1	0.0106 µM
CCC1(c2ccccc2)C(=O)NC(=O)NC1=O	> 100 µM

---

- Test system: HepG2 cells
- experimental_details: Glu/Gal assay: cellular ATP (CellTiter-Glo) after 24 h in glucose or galactose media
- cond: Homo sapiens, HepG2, 24 h, read-out: Gal MEC
Recorded log10(minimal effective concentration) for the following compounds
readout_name: log10(minimal effective concentration) (log10 of the value in µM)

CN(C)CCCC1(c2ccc(F)cc2)OCc2cc(C#N)ccc21 (centres unmarked)	0.85
CN1CCN(C2=Nc3cc(Cl)ccc3Nc3ccccc32)CC1	1.65
O=C1CC2(CCCC2)CC(=O)N1CCCCN1CCN(c2ncccn2)CC1	1.55
CN(C)CCCN1c2ccccc2Sc2ccc(Cl)cc21	1.02
O=C(CCCN1CCC(O)(c2ccc(Cl)cc2)CC1)c1ccc(F)cc1	1.41
O=C1CCc2ccc(OCCCCN3CCN(c4cccc(Cl)c4Cl)CC3)cc2N1	0.75
CN1c2ccccc2C(NCCCCCCC(=O)O)c2ccc(Cl)cc2S1(=O)=O (centres unmarked)	1.62
COC(=O)[C@H]1[C@H]2C[C@@H]3c4[nH]c5cc(OC)ccc5c4CCN3C[C@H]2C[C@@H](OC(=O)c2cc(OC)c(OC)c(OC)c2)[C@@H]1OC	1.28
NC(=O)N1c2ccccc2C=Cc2ccccc21 [Carbamazepine]	2.61
C=C(C)[C@H]1Cc2c(ccc3c2O[C@@H]2COc4cc(OC)c(OC)cc4[C@@H]2C3=O)O1	-2.70
OCCOCCN1CCN(C2=Nc3ccccc3Sc3ccccc32)CC1	1.76
O=C1Cc2cc(CCN3CCN(c4nsc5ccccc45)CC3)c(Cl)cc2N1	1.45
CN1CCN(CCCN2c3ccccc3Sc3ccc(C(F)(F)F)cc32)CC1	-0.10
CNCCC(Oc1ccc(C(F)(F)F)cc1)c1ccccc1 (centres unmarked)	1.08

---

- Test system: HepG2 cells
- experimental_details: Glu/Gal assay: cellular ATP (CellTiter-Glo) after 24 h in glucose or galactose media
- cond: Homo sapiens, HepG2, 24 h, read-out: Glu MEC
Binary call on minimal effective concentration: label 1 from 7 µM upward, label 0 beneath that.

CN(C)CCCN1c2ccccc2Sc2ccc(Cl)cc21	label 1
OCCOCCN1CCN(C2=Nc3ccccc3Sc3ccccc32)CC1	label 1
CN1CCN(C2=Nc3cc(Cl)ccc3Nc3ccccc32)CC1	label 1
C=C(C)[C@H]1Cc2c(ccc3c2O[C@@H]2COc4cc(OC)c(OC)cc4[C@@H]2C3=O)O1	label 0
CN(C)CCCC1(c2ccc(F)cc2)OCc2cc(C#N)ccc21 (stereo not drawn)	label 0
COC(=O)[C@H]1[C@H]2C[C@@H]3c4[nH]c5cc(OC)ccc5c4CCN3C[C@H]2C[C@@H](OC(=O)c2cc(OC)c(OC)c(OC)c2)[C@@H]1OC	label 0
O=C(CCCN1CCC(O)(c2ccc(Cl)cc2)CC1)c1ccc(F)cc1	label 1
CN1CCN(CCCN2c3ccccc3Sc3ccc(C(F)(F)F)cc32)CC1	label 0

---

- Tested on: HepG2 cells
- experimental_details: Acute extracellular flux (AEF) assay in intact HepG2 cells (Seahorse XFe96)
- Assay type: cell-based, human
- cond: Homo sapiens, HepG2, read-out: AC50 ECAR
readout_name: AC50

O=C1Nc2ccc(Cl)cc2C(c2ccccc2Cl)=NC1O (stereo not shown)	> 100 µM
CN1c2ccccc2C(NCCCCCCC(=O)O)c2ccc(Cl)cc2S1(=O)=O (stereo not shown)	> 100 µM
C=C(C)[C@H]1Cc2c(ccc3c2O[C@@H]2COc4cc(OC)c(OC)cc4[C@@H]2C3=O)O1	> 1 µM
CCC1(c2ccccc2)C(=O)NC(=O)NC1=O	> 100 µM

---

- System: HepG2 cells
- experimental_details: Acute extracellular flux (AEF) assay in intact HepG2 cells (Seahorse XFe96)
- Format: cell-based, human
- cond: Homo sapiens, HepG2, minimum effective concentration crossing vehicle control threshold; read-out: MEC ATP Production
Class membership depends on minimal effective concentration alone; the intervals are bin 0 = under 40 µM, bin 1 = from 40 µM up to 90 µM, bin 2 = 90 µM and over

CCCC(CCC)C(=O)O	bin 2
CN1CCN(C2=Nc3cc(Cl)ccc3Nc3ccccc32)CC1	bin 0
COC(=O)[C@H]1[C@H]2C[C@@H]3c4[nH]c5cc(OC)ccc5c4CCN3C[C@H]2C[C@@H](OC(=O)c2cc(OC)c(OC)c(OC)c2)[C@@H]1OC	bin 1
O=C1Cc2cc(CCN3CCN(c4nsc5ccccc45)CC3)c(Cl)cc2N1	bin 0
CNCCC(Oc1ccc(C(F)(F)F)cc1)c1ccccc1 (stereo not drawn)	bin 1
O=C1CC2(CCCC2)CC(=O)N1CCCCN1CCN(c2ncccn2)CC1	bin 1
Nc1nnc(-c2cccc(Cl)c2Cl)c(N)n1	bin 0
O=C1CCc2ccc(OCCCCN3CCN(c4cccc(Cl)c4Cl)CC3)cc2N1	bin 0
CN(C)CCCN1c2ccccc2Sc2ccc(Cl)cc21	bin 2
NC(=O)N1c2ccccc2C=Cc2ccccc21 [Carbamazepine]	bin 2
O=C1NC(=O)C(c2ccccc2)(c2ccccc2)N1	bin 2
